# Tested on: NCI-H226 lung
# measurement.notes: NCI tumour cell line growth inhibition, 48 h
readout.type: TGI

Request: Please report the recorded TGI for CC(C)(C)C(=O)Nc1cccc(-c2ccc[nH]2)n1 .
Response: > 100 µM

Request: Another compound to check: O=c1[nH]c(=O)n(C2CC(O)C(CO)O2)c2nc3ccc4ccccc4c3nc12 (stereo unspecified)
Response: > 100 µM

Request: Another compound to check: CC1=[N+]([O-])C(C)(C)N(O)C1(C)C
Response: > 100 µM

* * *

# Test system: T-47D breast
# measurement.notes: NCI tumour cell line growth inhibition, 48 h; in the data active = GI50 below about 0.43 µM; inactive = the rest
Give one outcome, nothing more. List: active, inactive

Below are worked cases with known answers.
CO[C@H]1CC[C@@]2(C)C(=CC[C@H]3[C@@H]4C[C@H](O)C[C@@]4(C)CC[C@@H]32)C1	inactive
Cc1cc(C)nc(SC2=C(Nc3cccc(Cl)c3)C(=O)N(Cc3ccccc3)C2=O)n1	inactive
COc1ccc(F)cc1C(=O)c1cnc(NC2CCN(S(C)(=O)=O)CC2)nc1N	inactive
CN(C)CC1CCn2c(c(C3=C(c4cn(C)c5ccccc45)C(=O)NC3=O)c3ccccc32)C1 (configuration not stated)	inactive

Request: Lab log entry: Cc1ccc(NC(=O)c2ccnc(N3CCCC3)c2)cc1-c1ccc(C(=O)NCC2CC2)cc1 — outcome as called in the assay?
Response: inactive

Request: Another compound to check: COc1cc2c(cc1OC)[C@@]1(C)C(=O)c3cc4c(cc3[C@H]1N(C)C2=O)OCO4
Response: inactive

Request: Another compound to check: O=C1/C(=C/c2ccc(Cl)cc2)CN(C(=O)C(Cl)Cl)C/C1=C\c1ccc(Cl)cc1
Response: active
